method.summary: NCI Yeast Anticancer Drug Screen. Data for the rad50 strain (AID 155);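 note: 0% = growth of vehicle-only cultures of the same strain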
condition.parameters: S. cerevisiae rad50 strain growth inhibition; at 50.0 µM; stronger effect = higher value
Compounds without any hit were thinned out: in the full panel of roughly 79,000, 15% have a hit.
Measured growth inhibition values are reported for all entries that follow.

[
  {
    "compound": "COC(=O)c1ccc(OC(=O)Nc2ccc(C)cc2)cc1",
    "growth inhibition [%]": -7.15
  },
  {
    "compound": "C#CCC[N+](C)(C)C",
    "growth inhibition [%]": -0.75
  },
  {
    "compound": "CC(=O)CC(=O)NCc1ccccc1",
    "growth inhibition [%]": 10.7
  },
  {
    "compound": "C[N+]1(C)C/C(=C\\c2ccncc2)C(=O)/C(=C/c2ccncc2)C1",
    "growth inhibition [%]": 0.3
  },
  {
    "compound": "COC(=O)C(=O)C1CCc2c(ccc3c2CCCC3)C1 (stereo not drawn)",
    "growth inhibition [%]": 0.8
  },
  {
    "compound": "CC(C)(N)C(=O)O",
    "growth inhibition [%]": 1.2
  },
  {
    "compound": "Cc1ccc(-c2nnc(CCCCCCCCc3nnc(-c4ccc(C)cc4O)n3N)n2N)c(O)c1",
    "growth inhibition [%]": 9.2
  },
  {
    "compound": "C/C(=N/NC(=O)NN)c1cccc(O)c1",
    "growth inhibition [%]": 3.1
  },
  {
    "compound": "CCCC(C)C(=O)OC(C)CC(C)C (stereo not drawn)",
    "growth inhibition [%]": 31
  },
  {
    "compound": "COc1ccc(/C(=N\\O)C(c2ccc(OC)cc2)C(Cl)(Cl)Cl)cc1 (stereo not drawn)",
    "growth inhibition [%]": 52.8
  },
  {
    "compound": "O=C(c1ccc2c(c1)C(=O)OC2=O)c1ccc2c(c1)C(=O)OC2=O",
    "growth inhibition [%]": -22.5
  },
  {
    "compound": "CC1=CC(O)(c2ccccc2)C(N2CCOCC2)N1O (stereo not drawn)",
    "growth inhibition [%]": -2.85
  },
  {
    "compound": "O=C(O)c1ccccc1/C=N\\NC1=NCCCCN1",
    "growth inhibition [%]": -34.2
  },
  {
    "compound": "O=C(CC(C(=O)c1ccsc1)c1cccs1)c1ccsc1 (stereo not drawn)",
    "growth inhibition [%]": -11.2
  },
  {
    "compound": "CCOc1ccccc1N(CCN(C)C)C(=O)C(c1ccccc1)c1ccccc1",
    "growth inhibition [%]": 20.9
  },
  {
    "compound": "O=C1OC(=O)C(Cl)=C1Cl",
    "growth inhibition [%]": 16.6
  },
  {
    "compound": "CC(C)N(C(=O)/C=C/C(=O)N(C(C)C)C(C)C)C(C)C",
    "growth inhibition [%]": 3.7
  },
  {
    "compound": "CC[N+](CC)(CC)CC(=O)c1ccc(Br)cc1",
    "growth inhibition [%]": 18.7
  }
]

* * *

method.summary: NCI Yeast Anticancer Drug Screen. Data for the bub3 strain (AID 167)
condition.parameters: S. cerevisiae bub3 mutant strain, at 50.0 µM, stronger effect = higher value
Description: Growth inhibition of yeast strains with defined genetic alterations is measured as a screen for potential anti-cancer activity. Selected strains with alterations in DNA damage repair or cell cycle control were exposed to compounds and growth inhibition was measured relative to vehicle treated controls. The strain used in this assay is bub3
About 79,000 compounds went through this panel and 15% of them were active in at least one assay; those are over-represented in the sample as a whole.
assay.readout: growth inhibition (%)

[
  {
    "compound": "OC1CC2C3CCC(C3)C2C1O (centres undefined)",
    "recorded.result": 9.55
  },
  {
    "compound": "CC(C)(C)C(=O)Oc1ccc[nH]c1=O",
    "recorded.result": -13.7
  },
  {
    "compound": "COC(=O)C1CCCN1C(c1ccccc1)(c1ccccc1)c1ccccc1 (centres undefined)",
    "recorded.result": 2.45
  },
  {
    "compound": "Cn1cnc([N+](=O)[O-])c1C(=O)NCc1ccccc1",
    "recorded.result": -7.35
  },
  {
    "compound": "CCCc1nc(CCC)nc(CCC)n1",
    "recorded.result": 5.55
  },
  {
    "compound": "CCCN(CCC)S(=O)(=O)c1ccc(NC(=O)Oc2ccccc2OC)cc1",
    "recorded.result": -7.3
  },
  {
    "compound": "CCCc1nc2c([nH]1)c(=O)n(C)c(=O)n2C",
    "recorded.result": -21.1
  },
  {
    "compound": "O=c1ccc2c(-c3ccccc3O)c3ccc(O)cc3oc-2c1",
    "recorded.result": 88.5
  },
  {
    "compound": "Cc1cccc2c1CCC21OC(=O)c2c1ccc1ccccc21 (centres undefined)",
    "recorded.result": 15.2
  },
  {
    "compound": "COc1ccc(NC(=O)CSc2nnc(Cc3ccccc3)o2)cc1",
    "recorded.result": -54
  },
  {
    "compound": "C=CCCCOC(C)=O",
    "recorded.result": 11.9
  },
  {
    "compound": "O=C(NNC(O)C(F)(F)F)c1ccccc1 (centres undefined)",
    "recorded.result": 11.2
  },
  {
    "compound": "CC1(C)C=Cc2c(ccc(C(=O)Cc3ccccc3)c2O)O1",
    "recorded.result": 16
  },
  {
    "compound": "COc1ccccc1/C=N\\NC(=O)c1ccccc1O",
    "recorded.result": 41
  }
]

* * *

method.summary: NCI Yeast Anticancer Drug Screen. Data for the bub3 strain (AID 167)
condition.parameters: S. cerevisiae bub3 mutant strain, at 50.0 µM, stronger effect = higher value
About 79,000 compounds went through this panel and 15% of them were active in at least one assay; those are over-represented in the sample as a whole.
Binary classification by growth inhibition, with 10% as an inclusive lower bound for fulfilled; all other cases are not fulfilled.

[
  {
    "compound": "C=CCNC(=O)CC(C)(C)C",
    "class.label": "fulfilled"
  },
  {
    "compound": "CN(C)C=Nc1ccc2[nH]c3ccccc3c2c1",
    "class.label": "fulfilled"
  },
  {
    "compound": "CCCCCCP(=O)(CCCC)CCCC",
    "class.label": "not fulfilled"
  },
  {
    "compound": "CCOC(=O)c1ccc(NC(=O)Nc2cc(Cl)c(OC)cc2OC)cc1",
    "class.label": "fulfilled"
  },
  {
    "compound": "ClCC#CCCl",
    "class.label": "not fulfilled"
  },
  {
    "compound": "C[N+]1(C)C/C(=C\\c2ccncc2)C(=O)/C(=C/c2ccncc2)C1",
    "class.label": "not fulfilled"
  },
  {
    "compound": "CCC(CC)C(=O)NC(=O)NC",
    "class.label": "not fulfilled"
  },
  {
    "compound": "Cc1ccc(Nc2ncnc3c2cnn3-c2ccccc2)cc1",
    "class.label": "not fulfilled"
  },
  {
    "compound": "CN1C(c2ccncc2)=NCC12CCCCC2",
    "class.label": "fulfilled"
  },
  {
    "compound": "CC(=O)NCc1cc(C)c(CBr)cc1CBr",
    "class.label": "not fulfilled"
  },
  {
    "compound": "O=C(CO)c1ccc([N+](=O)[O-])cc1",
    "class.label": "fulfilled"
  },
  {
    "compound": "N#CC1C(=O)NC(=O)C(C#N)C12CCCC2 (configuration not stated)",
    "class.label": "fulfilled"
  },
  {
    "compound": "COc1cccc2c1C(=O)c1c(C)c(C)c(C)c(C)c1-2",
    "class.label": "fulfilled"
  },
  {
    "compound": "Cc1ccc(S(=O)(=O)OC2C(C)OCOC3COCOC32)cc1 (configuration not stated)",
    "class.label": "not fulfilled"
  },
  {
    "compound": "CC(=O)Nc1ccccc1O",
    "class.label": "not fulfilled"
  },
  {
    "compound": "O=C1C=CC(=O)C1",
    "class.label": "not fulfilled"
  },
  {
    "compound": "CCN(CC)C(=O)CS(=O)(=O)c1ccc(N)cc1",
    "class.label": "not fulfilled"
  }
]

* * *

Measured growth inhibition values are reported for all entries that follow.
method.summary: NCI Yeast Anticancer Drug Screen. Data for the mec2-1 strain (AID 157)
condition.parameters: S. cerevisiae mec2-1 strain, at 50.0 µM, stronger effect = higher value
The panel holds about 79,000 compounds, 15% with a hit somewhere; the sample as a whole holds those more often.

[
  {
    "molecule": "O=C(O)C1CCCCC1C(=O)NCc1ccco1 (centres undefined)",
    "growth inhibition / %": 4.55
  },
  {
    "molecule": "CC1(C)CC(=O)C2=C(C1)NC(SSC1=C(C#N)C(c3ccc(F)cc3)C3=C(CC(C)(C)CC3=O)N1)=C(C#N)C2c1ccc(F)cc1 (centres undefined)",
    "growth inhibition / %": -12.8
  },
  {
    "molecule": "NC(=O)/C(=C\\c1ccncc1)c1cccc2ccccc12",
    "growth inhibition / %": -5.1
  },
  {
    "molecule": "CCCCCCCCCCn1cnc2c(=O)[nH]c(N)nc21",
    "growth inhibition / %": 2.75
  },
  {
    "molecule": "CCCCCCCCn1nnnc1C(F)(F)F",
    "growth inhibition / %": 8.45
  },
  {
    "molecule": "Cc1nc(N)nc(C)c1N=Nc1ccc(Br)cc1Br",
    "growth inhibition / %": 4.5
  },
  {
    "molecule": "C/C(=C/OS(=O)(=O)C(F)(F)F)c1ccccc1",
    "growth inhibition / %": -0.2
  },
  {
    "molecule": "CCN(CC)C(=N)N",
    "growth inhibition / %": -1.55
  },
  {
    "molecule": "COC(=O)c1ccc(F)cc1",
    "growth inhibition / %": -25.9
  },
  {
    "molecule": "O=S(=O)(Oc1ccc(-c2ccccc2)cc1Br)c1ccccc1",
    "growth inhibition / %": -0.85
  },
  {
    "molecule": "COC(=O)c1cc2c(cc1CC(Cc1ccc3c(c1)CCC3)C(=O)OC)CCC2 (centres undefined)",
    "growth inhibition / %": 1.25
  },
  {
    "molecule": "COC1=NN2C(OC)(c3ccccc3)c3c(-c4ccccc4)sc(-c4ccccc4)c3C2(c2ccccc2)S1 (centres undefined)",
    "growth inhibition / %": 2.1
  },
  {
    "molecule": "O=C(OC1COC(n2c(=O)oc3cc([N+](=O)[O-])c([N+](=O)[O-])cc32)C(OC(=O)c2ccccc2)C1OC(=O)c1ccccc1)c1ccccc1 (centres undefined)",
    "growth inhibition / %": 8.6
  },
  {
    "molecule": "CCOC(=O)C(C(C)=O)C(c1ccc(N(C)C)cc1)C(C(C)=O)C(=O)OCC (centres undefined)",
    "growth inhibition / %": -7
  },
  {
    "molecule": "O=C(O)c1ccc2c(Cl)ccc3c2c1CC3",
    "growth inhibition / %": -0.8
  },
  {
    "molecule": "COc1ccc2c(=O)c(-c3ccc(OC)c(OC)c3)c(C)oc2c1",
    "growth inhibition / %": -1.5
  },
  {
    "molecule": "C=CC(C)C(C)C (centres undefined)",
    "growth inhibition / %": 0.4
  },
  {
    "molecule": "CN(C)c1nnnn1Cc1ccccc1",
    "growth inhibition / %": -3.8
  },
  {
    "molecule": "COc1ccc2c(c1)C/C(=C\\c1cccc3ccccc13)C2=O",
    "growth inhibition / %": -19.3
  },
  {
    "molecule": "Cc1c2ccccc2nc(CS(=O)(=O)c2ccccc2)[n+]1[O-]",
    "growth inhibition / %": -13.2
  },
  {
    "molecule": "Cc1cccc(-c2cc(=O)c3c(C)ccnc3[nH]2)c1",
    "growth inhibition / %": -1
  },
  {
    "molecule": "Clc1ccc(/C=C/c2nc3ccccc3s2)cc1Cl",
    "growth inhibition / %": -23.6
  },
  {
    "molecule": "O=C(O)c1ccccc1Cc1c[nH]c2ccccc12",
    "growth inhibition / %": 4.95
  },
  {
    "molecule": "O=[N+]([O-])c1cc(N(c2ccccc2)c2ccccc2)cc([N+](=O)[O-])c1",
    "growth inhibition / %": -12.4
  },
  {
    "molecule": "Cc1cc(Cl)c(Cl)cc1NC(=O)c1ccc(Cl)c(Cl)c1",
    "growth inhibition / %": 23.4
  },
  {
    "molecule": "NCC(O)CSc1ccccc1 (centres undefined)",
    "growth inhibition / %": 4.15
  },
  {
    "molecule": "Cc1ccc(OCC2OC(n3cnc4nc(Nc5ccc(Cl)c(Cl)c5)nc(Cl)c43)CC2Oc2ccc(C)cc2)cc1 (centres undefined)",
    "growth inhibition / %": 10.8
  },
  {
    "molecule": "Nc1nc(SCc2ccccc2)c2ncn(Cc3ccccc3)c2n1",
    "growth inhibition / %": -7.55
  },
  {
    "molecule": "O=C(CCc1ccccc1)NC(=S)Nc1cccc([N+](=O)[O-])c1",
    "growth inhibition / %": 25.9
  }
]
